Test system: Malme-3M
Test: NCI tumour cell line growth inhibition, 48 h
Activity calls are given as the source filed them. No stated cut-off is given here; in the data, active = GI50 up to about 1.1 µM and inactive = higher.
A correct response names exactly one class from true (1) for active, false (0) for inactive

>>> category("BrC1=CC=C2NC=CC3=CC=NC1C32 (stereo unspecified)")
"false (0)"

Query: recorded result category for "COc1cccc(-c2cc(O)c3c(C)ccnc3n2)c1" in this test true (1)

Identify the outcome logged in this assay for the compound shown: "[O-][n+]1ccccc1Sc1nc(Sc2cccc[n+]2[O-])nc(Sc2cccc[n+]2[O-])n1" false (0)

###

System: SNB-19
Experiment: NCI tumour cell line growth inhibition, 48 h
Calls of active or inactive are those of the source. No stated cut-off is given here; in the data, active = GI50 up to about 1.1 µM and inactive = higher.
Your answer must be one of the following: 1 (active), -1 (inactive)

Completed entries (count: 8):
>>> category("CC(C)COP(=O)(OCC(C)C)C(NS(=O)(=O)c1ccccc1)(C(F)(F)F)C(F)(F)F")
-1
>>> category("O=C(O)CSc1nnc(Cc2ccccc2)[nH]1")
-1
>>> category("Nc1nnc(N)n1NC(=O)C(=O)Nc1ccc([N+](=O)[O-])cc1")
-1
>>> category("CCSC1=N/C(=C\\c2ccco2)C(Nc2ccc(C)cc2)=N1")
-1
>>> category("O=c1cc(-c2ccccc2)[nH]c2cc(F)c(F)cc12")
1
>>> category("CN(C)/N=N/c1nc2c(c(=O)n(C)c(=O)n2C)n1CC1CO1 (stereo not given)")
-1
>>> category("CCN(CC)CCN1C(=O)c2c(c(-c3ccccc3)c3ccccc3c2-c2ccccc2)C1=O")
-1
>>> category("CSc1nc2c(ncn2C2OCC(O)C(O)C2O)c(=O)n1C (stereo not given)")
-1

Could you kindly confirm the outcome this assay logged for "COc1cccc(-c2cc(O)c3c(C)ccnc3n2)c1" ? 1

Per the records of this test, what outcome belongs to "C[C@]12CC[C@H]3[C@@H](CC=C4C[C@@H](O)CC[C@@]43C)[C@@H]1CC[C@@H]2N(CCO)CCO" ? -1
